Value source: patent US9328138B2

assay_target: HCV genotype 1b (BK) NS3 modified enzyme with a R155K mutation (Hepatitis C virus genotype 1b, UniProt P26663, R1181K)
Construct: HCV genotype 1b (BK) NS3 modified enzyme
assay_overview: HCV NS3 protease time-resolved fluorescence (TRF) assay, genotype 1b R155K
Format: biochemical
setup_conditions: Ki 1b R155K, second of two values printed in the cell (not explained)
Source text: The HCV NS3 protease inhibitory activity of the present compounds may be tested using assays known in the art. One such assay is HCV NS3 protease time-resolved fluorescence (TRF) assay as described below and in International Patent Application Publication No. WO2006/102087. […] Product fluorescence is detected using either a VICTOR V2 or FUSION fluorophotometer (Perkin Elmer Life and Analytical Sciences) with excitation at 340 nm and emission at 615 nm with a 400 μs delay. […]
Structures can show the parent of a compound that is named as a salt.
Readings of Ki for the listed compounds
Answer format: numeric, nM implied, no suffix.

compound	units_symbol	Ki
C=C[C@@H]1C[C@]1(NC(=O)[C@@H]1C[C@@H]2CN1C(=O)[C@H](C1Cc3ccccc3C1)NC(=O)O[C@@H]1C[C@H]1CCCCCc1c(nc3ccccc3c1OCCCN(C)C)O2)C(=O)NS(=O)(=O)C1(C)CC1	nM	0.08
C=C[C@@H]1C[C@]1(NC(=O)[C@@H]1C[C@@H]2CN1C(=O)[C@H](C1CCCCC1)NC(=O)O[C@@H]1C[C@H]1CCCCCc1c(nc3ccccc3c1OCCCNC1CC1)O2)C(=O)NS(=O)(=O)C1(C)CC1 [Example 241, formate]	nM	0.162
C=C[C@@H]1C[C@]1(NC(=O)[C@@H]1C[C@@H]2CN1C(=O)[C@H](C1CCCCC1)NC(=O)O[C@@H]1C[C@H]1CCCCCc1c(nc3ccccc3c1OC1CC3COCC(C1)N3CCOC)O2)C(=O)NS(=O)(=O)C1(C)CC1 (stereo partly shown)	nM	0.197

Let us move to another entry and its Ki.
Look at this compound and give its reported Ki. C=C[C@@H]1CC1(NC(=O)[C@@H]1C[C@@H]2CN1C(=O)[C@H](C1CCCCC1)NC(=O)O[C@@H]1C[C@H]1CCCCCc1c(nc3ccccc3c1OCCCN1CC(F)C1)O2)C(=O)NS(=O)(=O)C1(C)CC1 (stereo partly shown)
0.16

---

assay_target: HCV genotype 1b (BK) NS3 modified enzyme with a R155K mutation (Hepatitis C virus genotype 1b, UniProt P26663, R1181K)
Construct: HCV genotype 1b (BK) NS3 modified enzyme
assay_overview: HCV NS3 protease time-resolved fluorescence (TRF) assay, genotype 1b R155K
Format: biochemical
setup_conditions: Ki 1b R155K, genotype 1b (BK) NS3 R155K; single value
readout: Ki (nM)
Answer format: numeric, nM implied, no suffix.

molecule	Ki / nM
C=C[C@@H]1C[C@]1(NC(=O)[C@@H]1C[C@@H]2CN1C(=O)[C@H](C(C)(C)C)NC(=O)O[C@@H]1C[C@H]1CCCCCc1c(nc3ccccc3c1OC1CCN(C)CC1)O2)C(=O)NS(=O)(=O)C1(C)CC1	0.046
C=C[C@@H]1C[C@]1(NC(=O)[C@@H]1C[C@@H]2CN1C(=O)[C@H](C(C)(C)C)NC(=O)O[C@@H]1C[C@H]1CCCCCc1c(nc3ccccc3c1OCCCN(CCO)Cc1ccccc1)O2)C(=O)NS(=O)(=O)C1(C)CC1	0.24
C=C[C@@H]1C[C@]1(NC(=O)[C@@H]1C[C@@H]2CN1C(=O)[C@H](C(C)(C)C)NC(=O)O[C@@H]1CCC[C@H]1CC/C=C/Cc1c(nc3ccccc3c1OCCCN1CCOCC1)O2)C(=O)NS(=O)(=O)C1(C)CC1	0.16
C=C[C@@H]1C[C@]1(NC(=O)[C@@H]1C[C@@H]2CN1C(=O)[C@H](C(C)(C)C)NC(=O)O[C@@H]1C[C@H]1CCCCCc1c(nc3ccccc3c1OCCCN(C)C(C)C(O)c1ccccc1)O2)C(=O)NS(=O)(=O)C1(C)CC1 (some centres unmarked)	0.074

Look at this molecule and give its reported Ki. C=C[C@@H]1C[C@]1(NC(=O)[C@@H]1C[C@@H]2CN1C(=O)[C@H](C(C)(C)C)NC(=O)O[C@@H]1CCC[C@H]1CC/C=C/Cc1c(nc3ccccc3c1OCCN1CCOCC1)O2)C(=O)NS(=O)(=O)C1CC1
0.21

Look at this molecule and give its reported Ki. C=C[C@@H]1C[C@]1(NC(=O)[C@@H]1C[C@@H]2CN1C(=O)[C@H](C(C)(C)C)NC(=O)O[C@@H]1C[C@H]1CCCCCc1c(nc3ccccc3c1OCCCN1CC3(CCC3)C1)O2)C(=O)NS(=O)(=O)C1(C)CC1
0.11

Look at this molecule and give its reported Ki. C=C[C@@H]1C[C@]1(NC(=O)[C@@H]1C[C@@H]2CN1C(=O)[C@H](C1CCCCC1)NC(=O)O[C@@H]1C[C@H]1CCCCCc1c(nc3ccccc3c1OCCCSc1nccs1)O2)C(=O)NS(=O)(=O)C1(C)CC1
1.1

Look at this molecule and give its reported Ki. C=C[C@@H]1C[C@]1(NC(=O)[C@@H]1C[C@@H]2CN1C(=O)[C@H](C(C)(C)C)NC(=O)O[C@@H]1C[C@H]1CCCCCc1c(nc3ccccc3c1OCCCN1CCC(OC)CC1)O2)C(=O)NS(=O)(=O)C1(C)CC1
0.079
